# normalized growth listing for each entry below
- protocolDescription: chemical genetic growth profiling, strain panel (AID 1159580);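 note: tested at 20 µM; growth read once vehicle control cultures reached saturation at 30 °C; 1 = growth at the plate median or of vehicle wells; lower values mean less growth of the strain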
- experimentalConditions: S. cerevisiae deletion strains, growth OD, locus YLL001W, strain dnm1, active compounds read low
Out of some 5,500 compounds screened, about 2,000 (36%) were called active. Another 18% or so got no clear call; they are omitted. The list shows a part of the results.

Previously resolved entries follow.
- compound: "C=C1C2CCC3(C)C(c4ccoc4)OC(=O)CC13OC1CC(OC(C)=O)C(C)(C)C(CC(=O)OC)C12C (stereo not drawn)"
  observed: "1.01 (inactive)"
- compound: "CN[C@@H]1[C@H](OC2[C@H](O[C@H]3[C@H](O)[C@@H](O)[C@H](N=C(N)N)[C@@H](O)[C@@H]3N=C(N)N)O[C@@H](C)[C@]2(O)C=O)O[C@@H](CO)[C@H](O)[C@H]1O (stereo partly drawn)"
  observed: "1.03 (inactive)"

Moving on to another compound below.
Supply measured normalized growth of C=C1C2CC[C@@]3(C)[C@H](c4ccoc4)OC(=O)C[C@]13O[C@H]1CC(=O)C(C)(C)C(CC(=O)OC)[C@@]21C (stereo partly drawn) in your reply. 1.01 (inactive)

====

- protocolDescription: chemical genetic growth profiling, strain panel (AID 1159580);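 note: tested at 20 µM; growth read once vehicle control cultures reached saturation at 30 °C; 1 = growth at the plate median or of vehicle wells; lower values mean less growth of the strain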
- experimentalConditions: S. cerevisiae deletion strains, growth OD, locus YKR001C, strain vps1
Among all 5,500 compounds or so, about 2,000 (36%) were called active. Inconclusive results (about 18%) are left out. Cut-off read from the data, not from the text of the source: active = normalized growth mostly below about 0.91 (no sharp cut-off); inconclusive = no clear call, values can overlap the other calls; inactive = mostly above about 0.92. Some of the results follow.
The reply should name one outcome from t (active), f (inactive)

- compound: "COC(=O)CCCOc1ccc(Cl)cc1Cl"
  cat: "f"
- compound: "COc1cc2c(cc1-c1cc3cc4ccoc4cc3oc1=O)OCO2"
  cat: "f"
- compound: "CCCC(CCC)C(=O)O"
  cat: "f"

Assay outcome for CN(C(=O)CN(CCO)CC(=O)N(C)C(C)(C)Cc1ccccc1)C(C)(C)Cc1ccccc1 : what was it? f

====

- protocolDescription: chemical genetic growth profiling, strain panel (AID 1159580);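 note: tested at 20 µM; growth read once vehicle control cultures reached saturation at 30 °C; 1 = growth at the plate median or of vehicle wells; lower values mean less growth of the strain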
- experimentalConditions: S. cerevisiae deletion strains, growth OD, locus YOR265W, strain rbl2, active compounds read low
Hit rate of the full screen: of about 5,500 compounds, about 2,000 (36%) were called active. Not shown: some 18% with an inconclusive outcome. This is one part of the list.
attributeMeasured: normalized growth
I'd appreciate a reply containing only the number, no unit.

Previously resolved entries follow.
- compound: "CC(CCC(=O)O)[C@H]1CCC2C3CC[C@@H]4C[C@H](O)CC[C@]4(C)C3CC[C@@]21C (some centres undefined)"
  normalized growth: 0.994
- compound: "CC(C)CCCC(C)C1CCC2C3CC[C@H]4CCCC[C@]4(C)C3CC[C@]12C (some centres undefined)"
  normalized growth: 1.02
- compound: "CC(CCC(=O)O)[C@H]1CCC2C3C(C[C@H](O)[C@@]21C)[C@@]1(C)CC[C@@H](O)C[C@H]1C[C@H]3O (some centres undefined)"
  normalized growth: 1

Moving on to another compound below.
Supply measured normalized growth of CC(CCC(=O)O)[C@H]1CCC2C3C[C@H](O)[C@@H]4C[C@H](O)CC[C@]4(C)C3CC[C@@]21C (some centres undefined) in your reply. 0.983

====

# normalized growth listing for each entry below
- protocolDescription: chemical genetic growth profiling, strain panel (AID 1159580);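 note: tested at 20 µM; growth read once vehicle control cultures reached saturation at 30 °C; 1 = growth at the plate median or of vehicle wells; lower values mean less growth of the strain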
- experimentalConditions: S. cerevisiae deletion strains, growth OD, locus YJL115W, strain asf1, active compounds read low
Hit rate of the full screen: of about 5,500 compounds, about 2,000 (36%) were called active. Inconclusive results (about 18%) are left out. The list shows a part of the results.
I'd appreciate a reply containing only the number, no unit.

Previously resolved entries follow.
- compound: "C[C@H](CCC(=O)O)[C@H]1CCC2C3C(CC[C@@]21C)[C@@]1(C)CC[C@@H](O)C[C@H]1C[C@@H]3O (stereo not given in full)"
  attributeMeasured: "normalized growth"
  observed: 0.984
- compound: "CC(CCC(=O)O)[C@H]1CCC2C3C(C[C@H](O)[C@@]21C)[C@@]1(C)CC[C@@H](O)C[C@H]1C[C@H]3O (stereo not given in full)"
  attributeMeasured: "normalized growth"
  observed: 1.03
- compound: "CN(C)C(=O)Nc1ccc(Cl)c(Cl)c1"
  attributeMeasured: "normalized growth"
  observed: 1
- compound: "CC(CCC(=O)O)[C@H]1CCC2C3CC[C@@H]4C[C@H](O)CC[C@]4(C)C3CC[C@@]21C (stereo not given in full)"
  attributeMeasured: "normalized growth"
  observed: 1.01

Moving on to another compound below.
Supply measured normalized growth of CC(CCC(=O)O)[C@H]1CCC2C3CC[C@@H]4CCCC[C@]4(C)C3CC[C@@]21C (stereo not given in full) in your reply. 1.01

The measurements presented in this section are drawn from PubChem BioAssay AID1159580.
